Cited source: patent US9145415B2

- subject_of_test: human FLT3 protein (FLT3 (WT)) (Homo sapiens)
- Construct: human FLT3 protein (intracellular region, 564 to 993 aa); GST; purchased Carna Biosciences; host or cells: baculovirus expression system
- Sequence (P36888 564-993): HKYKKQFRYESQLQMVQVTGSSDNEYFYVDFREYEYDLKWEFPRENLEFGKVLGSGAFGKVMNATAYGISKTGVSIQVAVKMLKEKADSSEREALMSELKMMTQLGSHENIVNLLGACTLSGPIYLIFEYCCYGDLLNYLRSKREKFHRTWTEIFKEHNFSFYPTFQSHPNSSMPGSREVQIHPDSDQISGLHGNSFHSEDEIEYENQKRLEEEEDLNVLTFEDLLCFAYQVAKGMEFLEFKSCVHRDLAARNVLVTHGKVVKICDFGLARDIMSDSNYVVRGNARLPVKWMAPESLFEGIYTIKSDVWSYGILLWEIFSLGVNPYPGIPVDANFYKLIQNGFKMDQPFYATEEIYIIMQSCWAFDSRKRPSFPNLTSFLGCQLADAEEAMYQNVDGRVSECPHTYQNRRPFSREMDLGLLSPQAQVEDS
- method_notes: FLT3 inhibition test (FLT3 enzyme inhibition, time-resolved fluorescence of substrate peptide phosphorylation)
- Assay type: biochemical
- test_context: GST-fused human FLT3 (564 to 993 aa), ATP 50 μM; read-out: FLT3 (WT) enzyme inhibition activity
Item-by-item account of IC50

Examples with their reported IC50 follow.
CC(C)Oc1nc(Nc2ccc(C#N)cc2)ncc1C#C[C@@H]1CCC[C@H](NC(=O)[C@H](C)N(C)C(=O)/C=C/CN(C)C)C1 = < 10 nM
CNc1nc(Nc2ccc(F)cc2)ncc1C#CCCCNC(=O)[C@@H]1CC(F)(F)CN1C(=O)/C=C/CN(C)C = < 10 nM
CCCNc1nc(Nc2ccc(C(N)=O)cc2)ncc1C(=O)NCCCNC(=O)CN(C)C(=O)/C=C/CN(C)C = < 10 nM
COc1ccc(Nc2ncc(C#CCCCNC(=O)[C@H](C)N(C)C(=O)/C=C/CN(C)C)c(NCCCF)n2)cc1F = < 10 nM
COCCCNc1nc(Nc2cccc(F)c2)ncc1C#CCCCNC(=O)[C@H](C)N(C)C(=O)/C=C/CN(C)C = < 10 nM
C=CC(=O)NCC(=O)NC1CCCC(NC(=O)c2cnc(Nc3ccc(C(N)=O)cc3)nc2NCCC)C1 (stereo not shown) = < 10 nM

Data request: State its IC50 on human FLT3 protein (FLT3 (WT)) (Homo sapiens): C=CC(=O)N[C@H](C)C(=O)Nc1cccc(NC(=O)c2cnc(NCCc3ccncc3)nc2NCCC)c1
Data returned: < 10 nM

Data request: State its IC50 on human FLT3 protein (FLT3 (WT)) (Homo sapiens): C[C@@H](C(=O)NCCCC#Cc1cnc(Nc2ccc(C#N)cc2)nc1N1CCC(F)(F)CC1)N(C)C(=O)/C=C/CN(C)C
Data returned: < 10 nM

Data request: State its IC50 on human FLT3 protein (FLT3 (WT)) (Homo sapiens): C[C@@H](C(=O)NCCCC#Cc1cnc(Nc2cccc(F)c2)nc1NCC1CC1)N(C)C(=O)/C=C/CN(C)C
Data returned: < 10 nM

Data request: State its IC50 on human FLT3 protein (FLT3 (WT)) (Homo sapiens): CCCNc1nc(Nc2ccc(C(N)=O)cc2)ncc1C(=O)Nc1cccc(NC(=O)[C@H](C)N(C)C(=O)/C=C/CN(C(C)C)C(C)C)c1
Data returned: < 10 nM

Data request: State its IC50 on human FLT3 protein (FLT3 (WT)) (Homo sapiens): CCCNc1nc(NCCc2ccncc2)ncc1C(=O)Nc1ccc(OC)c(NC(=O)CN(C)C(=O)/C=C/CN(C)C)c1
Data returned: < 10 nM

Data request: State its IC50 on human FLT3 protein (FLT3 (WT)) (Homo sapiens): CCNc1nc(Nc2ccc(C#N)cc2)ncc1C#C[C@@H]1CCC[C@H](NC(=O)[C@H](C)N(C)C(=O)/C=C/CN(C)C)C1
Data returned: < 10 nM

Data request: State its IC50 on human FLT3 protein (FLT3 (WT)) (Homo sapiens): CCCNc1nc(Nc2ccc3nnccc3c2)ncc1C(=O)NCCCNC(=O)[C@H](C)N(C)C(=O)/C=C/CN(C)C [Compound 6-10B]
Data returned: < 10 nM

Data request: State its IC50 on human FLT3 protein (FLT3 (WT)) (Homo sapiens): CC#CC(=O)N(C)[C@@H](C)C(=O)Nc1cccc(NC(=O)c2cnc(Nc3ccc(C(N)=O)cc3)nc2NCCC)c1
Data returned: < 10 nM

Data request: State its IC50 on human FLT3 protein (FLT3 (WT)) (Homo sapiens): CN(C)C/C=C/C(=O)N(C)CC(=O)NCCCC#Cc1cnc(Nc2ccc(F)cc2)nc1NCC1CCOCC1
Data returned: < 10 nM
